# Test system: tumor cell lines
# measurementNotes: Combination assay (MTT in vitro cell proliferation, combination index)
# Assay type: cell-based
# conditionSummary: HTC116, colon carcinoma; read-out: Pim Inh EC50
measuredParameter: pEC50
Give bare numbers, as −log10 of the molar value.

Complete the entry with pEC50 for `COc1cc(NCC2CCNCC2)nc2c1nnn2-c1cccc(OC(F)(F)F)c1`
5.00

====

# Tested on: panel of 24 kinases
# measurementNotes: Kinase selectivity testing (percentage inhibition of 24 kinases at 1 μM)
# Type: biochemical
# conditionSummary: proquinase, JAK2, 1 uM
measuredParameter: % inhibiton at 1 uM JAK2 (%)
One number for each entry, in %.

>>> print(df.to_string())
                                   compound  reportedresult
0  COc1cc(NCC2CCNCC2)nc2c1nnn2-c1cccc(OC(F)(F)F)c1               2
1  OC1CCC(Nc2ccc3nnn(-c4cccc(OC(F)(F)F)c4)c3n2)CC1 (stereo in doubt)              15

Provide one value: measured % inhibiton at 1 uM JAK2 of `FC(F)(F)Oc1cccc(-n2nnc3ccc(NCC4CC5(CCNCC5)C4)nc32)c1`
0

====

Please provide measured % inhibiton at 1 uM IKK BETA for the entries that follow.
# System: panel of 24 kinases
# measurementNotes: Kinase selectivity testing (percentage inhibition of 24 kinases at 1 μM)
# Type: biochemical
# conditionSummary: proquinase, IKK BETA, 1 uM
Answer format reminder: number followed by unit.

Field: example entries. Status: answers known.
>>> print(df.to_string())
                                   compound  reportedresult
0  COc1cc(NCC2CCNCC2)nc2c1nnn2-c1cccc(N(C)C)c1 [2-87]              0%
1  FC(F)(F)c1cccc(-n2nnc3cc(Cl)c(NCC4CCNCC4)nc32)c1 [2-83]              0%
2  FC(F)(F)Oc1cccc(-n2nnc3ccc(NC4CC5(CCNCC5)C4)nc32)c1 [2-66]              5%

// each listed compound needs a value for % inhibiton at 1 uM IKK BETA
1. FC(F)(F)Oc1cccc(-n2nnc3cc(Cl)c(NCC4CCNCC4)nc32)c1 [2-54]
2. FC(F)(F)Oc1cccc(-n2nnc3ccc(N4CCCC5(CCCN5)CC4)nc32)c1 (centres unmarked) [2-65]
3. COc1cc(NCC2CCNCC2)nc2c1nnn2-c1cccc(OC(F)(F)F)c1 [2-92]
4. FC(F)(F)Oc1cccc(-n2nnc3ccc(NCC4CC5(CCNCC5)C4)nc32)c1 [2-67]

1. 17%
2. 0%
3. 0%
4. 0%

Recall and state the measured % inhibiton at 1 uM IKK BETA for OC1CCC(Nc2ccc3nnn(-c4cccc(OC(F)(F)F)c4)c3n2)CC1 (stereo in doubt) [2-47] .
4%

====

Please respond with reported % inhibiton at 1 uM JAK2 for every item in the list.
# Test system: panel of 24 kinases
# measurementNotes: Kinase selectivity testing (percentage inhibition of 24 kinases at 1 μM)
# Assay type: biochemical
# conditionSummary: proquinase, JAK2, 1 uM
Numbers only, in %.

Answered examples (4):
                                   compound  reportedresult
0  FC(F)(F)c1cccc(-n2nnc3cc(Cl)c(NCC4CCNCC4)nc32)c1               1
1  COc1cc(NCC2CCNCC2)nc2c1nnn2-c1cccc(N(C)C)c1               1
2  FC(F)(F)Oc1cccc(-n2nnc3ccc(N4CCCC5(CCCN5)CC4)nc32)c1 (centres unmarked)               8
3  FC(F)(F)Oc1cccc(-n2nnc3cc(Cl)c(NCC4CCNCC4)nc32)c1              15

Report value: % inhibiton at 1 uM JAK2, system: panel of 24 kinases, compound: `FC(F)(F)Oc1cccc(-n2nnc3ccc(NC4CC5(CCNCC5)C4)nc32)c1`
3
